pIC50: −log10 of the molar value.
Below are pIC50 values measured for UniProtKB Q92630.

Solved entries (count: 8):
1) CC#CC1CNC(=O)N1c1nc2c(ccc3nnn(C)c32)s1 (single isomer, unassigned) [Example 29] = ≤ 6.00
2) CC#C[C@H]1[C@H](C(C)C)NC(=O)N1c1nc2c3c(ccc2s1)OCC3 [Example 67] = ≤ 6.00
3) CC#CC1CNC(=O)N1c1nc2c3c(ccc2s1)OCC(=O)N3C (racemic) [Example 46] = ≤ 6.00
4) CC#CC1CNC(=O)N1c1nc2c(ccc3ncn(CCO)c32)s1 (racemic) [Example 31] = 6.00 to 7.00
5) CC#CC1CNC(=O)N1c1nc2c3c(ccc2s1)OCCN3C (racemic) [Example 25] = 6.00 to 7.00
6) CC#C[C@H]1[C@H](CO)NC(=O)N1c1nc2c3c(ccc2s1)OCCO3 (single isomer, unassigned) [Example 66] = ≤ 6.00
7) CC#CC1CNC(=O)N1c1nc2c(ccc3[nH]ncc32)s1 (racemic) [Example 50] = ≤ 6.00
8) CC#CC1CNC(=O)N1c1nc2c(ccc3ncccc32)s1 (racemic) [Example 27] = 6.00 to 7.00

*Q* Tell me reported pIC50 for CC#CC1CNC(=O)N1c1nc2c3c(ccc2s1)OCO3 (racemic) [Example 1] , tested with UniProtKB Q92630.
*A* 6.00 to 7.00

*Q* Tell me reported pIC50 for CC#CC1CNC(=O)N1c1nc2c3c(ccc2s1)OCC3 (single isomer, unassigned) [Example 10] , tested with UniProtKB Q92630.
*A* ≤ 6.00

*Q* Tell me reported pIC50 for CC#C[C@@H]1[C@H]([C@H](C)O)NC(=O)N1c1nc2c3c(ccc2s1)OCC3 [Example 84] , tested with UniProtKB Q92630.
*A* 6.00 to 7.00

*Q* Tell me reported pIC50 for CC#CC1CNC(=O)N1c1nc2c3c(ccc2s1)OCCN3CCOC (racemic) [Example 42] , tested with UniProtKB Q92630.
*A* ≤ 6.00

*Q* Tell me reported pIC50 for CN(C)CC#CC1CNC(=O)N1c1nc2c3c(ccc2s1)OCC3 (racemic) [Example 18] , tested with UniProtKB Q92630.
*A* ≤ 6.00

*Q* Tell me reported pIC50 for O=C1NCC(C#CCO)N1c1nc2c3c(ccc2s1)OCC3 (racemic) [Example 19] , tested with UniProtKB Q92630.
*A* 6.00 to 7.00

*Q* Tell me reported pIC50 for CC#CC1CNC(=O)N1c1nc2c(ccc3nn(C)cc32)s1 (racemic) [Example 51] , tested with UniProtKB Q92630.
*A* 6.00 to 7.00

*Q* Tell me reported pIC50 for CC#CC1CNC(=O)N1c1nc2c(ccc3nccnc32)s1 (racemic) [Example 24] , tested with UniProtKB Q92630.
*A* 6.00 to 7.00

*Q* Tell me reported pIC50 for CC#C[C@@H]1[C@H](CC)NC(=O)N1c1nc2c3c(ccc2s1)OCC3 (relative stereo) [Example 73] , tested with UniProtKB Q92630.
*A* 6.00 to 7.00

###

Below are IC50 values measured for DYRK2 (Homo sapiens, UniProt Q92630).

Solved entries (count: 3):
1. CC#CC1C(CN)NC(=O)N1c1nc2c3c(ccc2s1)OCC3 (centres unmarked) [Example 63] = 100 to 1000 nM
2. CC#C[C@H]1[C@H](CO)NC(=O)N1c1nc2c3c(ccc2s1)OCC3 (relative stereo) [Example 61] = 100 to 1000 nM
3. CC#C[C@H]1[C@@H](C)NC(=O)N1c1nc2c3c(ccc2s1)OCC3 [Example 17] = ≥ 1000 nM

*Q* Given CC#CC1CNC(=O)N1c1nc2c3c(ccc2s1)OCCN3C1CC1 (racemic) [Example 45] , state its recorded IC50.
*A* 100 to 1000 nM

*Q* Given CC#C[C@@H]1[C@H]([C@@H](C)O)NC(=O)N1c1nc2c3c(ccc2s1)OCC3 [Example 82] , state its recorded IC50.
*A* 100 to 1000 nM

*Q* Given CC#C[C@H]1[C@H]([C@H](C)O)NC(=O)N1c1nc2c3c(ccc2s1)OCC3 [Example 83] , state its recorded IC50.
*A* ≥ 1000 nM

*Q* Given CC#CC1CNC(=O)N1c1nc2c3c(ccc2s1)OCCN3CCN1CCCCC1 (racemic) [Example 43] , state its recorded IC50.
*A* ≥ 1000 nM

*Q* Given CC#CC1CNC(=O)N1c1nc2c3c(ccc2s1)OCCN3CCO (racemic) [Example 41] , state its recorded IC50.
*A* 100 to 1000 nM

###

Target: DYRK1A (Homo sapiens, UniProt Q13627)
Construct: purchased Carna Biosciences, Inc. 04-130
Experiment: Inhibition test on activity of DYRK family, mobility shift assay (MSA), DYRK1A
Format: biochemical
Conditions: ATP 100 μM, FITC-labeled DYRKtide peptide substrate, room temperature 1 hour
readout_label: Inhibitory Activity 1a (IC50 against DYRK1A)

1) CC#CC1CNC(=O)N1c1nc2c3c(ccc2s1)OCC(C)N3C (racemic) [Example 40] = * * *
2) CC#CC1N(c2nc3c4c(ccc3s2)OCC4)C(=O)NC1(C)C (racemic) = * *
3) CC(C)(O)C#CC1CNC(=O)N1c1nc2c3c(ccc2s1)OCC3 (racemic) = * *
4) CC#C[C@H]1[C@H](CO)NC(=O)N1c1nc2c3c(ccc2s1)OCCO3 (single isomer, unassigned) = * * *

*Q* Given CC#CC1CNC(=O)N1c1nc2c3c(ccc2s1)OCCO3 (single isomer, unassigned) [Example 58] , state its recorded Inhibitory Activity 1a (IC50 against DYRK1A).
*A* * * *

*Q* Given CC#C[C@@H]1[C@H](CO)NC(=O)N1c1nc2c3c(ccc2s1)OCC3 (relative stereo) , state its recorded Inhibitory Activity 1a (IC50 against DYRK1A).
*A* * * *

*Q* Given CC#CC1CNC(=O)N1c1nc2c(ccc3ncn(CCOC)c32)s1 (racemic) , state its recorded Inhibitory Activity 1a (IC50 against DYRK1A).
*A* * *

###

Biological target: DYRK1B (Homo sapiens, UniProt Q9Y463)
Construct: purchased Carna Biosciences, Inc. 04-131
Sequence (Q9Y463 whole entry): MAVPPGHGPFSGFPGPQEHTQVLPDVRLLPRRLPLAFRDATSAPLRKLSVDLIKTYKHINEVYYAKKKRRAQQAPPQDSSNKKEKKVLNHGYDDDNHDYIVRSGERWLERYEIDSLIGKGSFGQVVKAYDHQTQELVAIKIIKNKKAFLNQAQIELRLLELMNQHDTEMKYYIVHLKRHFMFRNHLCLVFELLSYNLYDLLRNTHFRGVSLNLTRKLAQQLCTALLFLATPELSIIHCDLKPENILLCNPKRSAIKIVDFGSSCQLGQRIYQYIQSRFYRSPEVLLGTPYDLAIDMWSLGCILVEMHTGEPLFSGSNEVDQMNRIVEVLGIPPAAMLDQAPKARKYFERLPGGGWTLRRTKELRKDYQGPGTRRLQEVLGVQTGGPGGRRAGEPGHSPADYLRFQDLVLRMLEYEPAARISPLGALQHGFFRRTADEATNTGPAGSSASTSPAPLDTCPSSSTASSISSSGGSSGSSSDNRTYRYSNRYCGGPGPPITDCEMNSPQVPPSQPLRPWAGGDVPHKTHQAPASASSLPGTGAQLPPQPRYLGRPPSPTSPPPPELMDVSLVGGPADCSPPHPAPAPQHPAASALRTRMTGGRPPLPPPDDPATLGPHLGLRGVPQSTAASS
Test: Inhibition test on activity of DYRK family, mobility shift assay (MSA), DYRK1B
Type: biochemical
Set-up: scale not given here
Conditions: ATP 200 μM, FITC-labeled DYRKtide peptide substrate, room temperature 1 hour
readout_label: Inhibitory Activity 1b (IC50 against DYRK1B)

Solved entries (count: 5):
1. CC#CC1CNC(=O)N1c1nc2c(ccc3ncn(C)c32)s1 (racemic) = * * *
2. CC#C[C@@H]1CNC(=O)N1c1nc2c3c(ccc2s1)OCO3 = * * *
3. CC#CC1CNC(=O)N1c1nc2c3c(ccc2s1)OCO3 (racemic) = * * *
4. CC#CC1CNC(=O)N1c1nc2c(ccc3nnn(C)c32)s1 (racemic) [Example 28] = * * *
5. CC#CC1CNC(=O)N1c1nc2c(ccc3nccnc32)s1 (racemic) = * * *

As a next step, examine the compound that follows.
*Q* Given CC#CC1CNC(=O)N1c1nc2c(ccc3ncn(CCO)c32)s1 (racemic) , state its recorded Inhibitory Activity 1b (IC50 against DYRK1B).
*A* * * *

###

Target: DYRK1A (Homo sapiens, UniProt Q13627)
Construct: purchased Carna Biosciences, Inc. 04-130
Test: Inhibition test on activity of DYRK family, mobility shift assay (MSA), DYRK1A
Assay type: biochemical
Conditions: ATP 100 μM, FITC-labeled DYRKtide peptide substrate, room temperature 1 hour
readout_label: Inhibitory Activity 1a (IC50 against DYRK1A)

Solved entries (count: 4):
1. O=C1NCC(C#CC2CC2)N1c1nc2c3c(ccc2s1)OCC3 (racemic) = * * *
2. [2H]C1([2H])Oc2ccc3sc(N4C(=O)NC[C@H]4C#CC)nc3c2O1 = * * *
3. CN(C)CC#CC1CNC(=O)N1c1nc2c3c(ccc2s1)OCC3 (racemic) = * *
4. CC#CC1CNC(=O)N1c1nc2c(ccc3[nH]ncc32)s1 (racemic) = * *

*Q* Given CC#CC1CNC(=O)N1c1nc2c(ccc3nccnc32)s1 (racemic) , state its recorded Inhibitory Activity 1a (IC50 against DYRK1A).
*A* * * *

###

Molecular target: DYRK3 (Homo sapiens)
Sequence (O43781 1-588): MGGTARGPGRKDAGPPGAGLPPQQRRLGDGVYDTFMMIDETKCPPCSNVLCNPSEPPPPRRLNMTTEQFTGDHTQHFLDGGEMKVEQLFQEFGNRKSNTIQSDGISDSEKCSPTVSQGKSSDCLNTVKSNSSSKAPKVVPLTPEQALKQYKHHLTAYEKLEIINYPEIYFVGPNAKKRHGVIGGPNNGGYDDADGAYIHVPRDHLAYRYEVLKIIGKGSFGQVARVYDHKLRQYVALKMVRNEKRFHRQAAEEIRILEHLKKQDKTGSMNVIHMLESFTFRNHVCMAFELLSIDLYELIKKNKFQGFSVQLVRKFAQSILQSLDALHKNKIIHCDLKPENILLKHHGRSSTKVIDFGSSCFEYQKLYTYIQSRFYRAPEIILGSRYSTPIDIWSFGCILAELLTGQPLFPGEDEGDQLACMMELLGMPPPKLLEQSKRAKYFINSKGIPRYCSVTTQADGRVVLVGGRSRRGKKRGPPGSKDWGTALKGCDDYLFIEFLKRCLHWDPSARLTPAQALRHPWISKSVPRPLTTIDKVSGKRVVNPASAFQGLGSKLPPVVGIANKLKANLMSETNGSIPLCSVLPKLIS
pIC50: −log10 of the molar value.
readout_label: pIC50

1. CC#CC1CNC(=O)N1c1nc2c3c(ccc2s1)OCCN3C (racemic) = 6.00 to 7.00

*Q* Tell me reported pIC50 for O=C1NCC(C#CCO)N1c1nc2c3c(ccc2s1)OCC3 (racemic) , tested with DYRK3 (Homo sapiens).
*A* 6.00 to 7.00

*Q* Tell me reported pIC50 for CC#CC1CNC(=O)N1c1nc2c3c(ccc2s1)OCC(C)N3C (single isomer, unassigned) [Example 49] , tested with DYRK3 (Homo sapiens).
*A* 6.00 to 7.00

*Q* Tell me reported pIC50 for O=C1NCC(C#Cc2ccccc2)N1c1nc2c3c(ccc2s1)OCC3 (racemic) , tested with DYRK3 (Homo sapiens).
*A* ≤ 6.00
